We begin with a simple list: items and their reported inhibition.
study.system: Matrilysin (Homo sapiens) (UniProt P09237)
Sequence (P09237 whole entry): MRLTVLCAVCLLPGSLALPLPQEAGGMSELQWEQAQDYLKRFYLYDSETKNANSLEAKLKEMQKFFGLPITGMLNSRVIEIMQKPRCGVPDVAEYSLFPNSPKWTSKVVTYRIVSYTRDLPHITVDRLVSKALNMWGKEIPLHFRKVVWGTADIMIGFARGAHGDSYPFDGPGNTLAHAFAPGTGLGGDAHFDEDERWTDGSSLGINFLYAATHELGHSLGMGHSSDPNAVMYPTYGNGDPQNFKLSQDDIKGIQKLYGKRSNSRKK
experiment: Inhibition of human MMP-7 at 100 uM relative to control
quantity: inhibition (%)

NC(=O)NS(=O)(=O)c1ccc(NC(=O)CCS)cc1; 32
O=C(CCS)Nc1ccccc1C(=O)O; 11

* * *

We begin with a simple list: items and their reported inhibition.
study.system: Matrilysin (Homo sapiens) (UniProt P09237)
experiment: Inhibition of human MMP-7 at 100 uM relative to control
quantity: inhibition

O=C(CCS)Nc1ccc(Cl)c(Cl)c1; < 10%
N=C(N)NS(=O)(=O)c1ccc(NC(=O)CCS)cc1; < 10%
O=C(CCS)Nc1cccc(C(=O)O)c1; < 10%
